tested on: L1210 cells; test: L1210 cytotoxicity in presence of DFMO; format: cell-based, mouse; conditions: Mus musculus, L1210; in the presence of DFMO
Attribute: IC50
Measure: IC50

INSERT INTO measurements (compound, measure, assay_result) VALUES
  ('Cl.NCCCCNCCCCNCc1ccc(CNCCCCNCCCCN)cc1 [Compound 10, Hydrochloride salt]', 'IC50', '360 nM'),
  ('Cl.NCCCCNCCCCNCc1c2ccccc2c(CNCCCCNCCCCN)c2ccccc12 [Compound 4, Hydrochloride salt]', 'IC50', '220 nM');

###

target: polyamine transporter (PAT); assay: PAT binding affinity, competition with radiolabeled spermidine in L1210; conditions: L1210 cells
pKi: −log10 of the molar value.
Measure: pKi

INSERT INTO measurements (compound, assay_result) VALUES
  ('Cl.NCCCCNCCCCNCc1ccc(CNCCCCNCCCCN)c2ccccc12 [Compound 7, Hydrochloride salt]', 6.77),
  ('Cl.NCCCCNCCCCNCc1c2ccccc2c(CNCCCCNCCCCN)c2ccccc12 [Compound 4, Hydrochloride salt]', 6.41),
  ('Cl.NCCCCNCCCCNCc1ccc(CNCCCCNCCCCN)cc1 [Compound 10, Hydrochloride salt]', 6.28),
  ('NCCCCNCCCCNCc1cc(CNCCCCNCCCCN)cc(CN(CCCCN)CCCCN)c1 [Compound 15]', 6.31);
